Listed here: items and their measured inhibition.
# target: Protein arginine N-methyltransferase 1 (Homo sapiens)
# assay.summary: Inhibition of human recombinant PRMT1 assessed as histone H4 methylation at 50 uM

molecule: O=C(/C=C/c1ccc(O)c(Br)c1)c1cc(Br)c(O)c(Br)c1
inhibition, %: 36
--
molecule: O=C1/C(=C/c2cc(Br)c(O)c(Br)c2)CCC/C1=C\c1cc(Br)c(O)c(Br)c1
inhibition, %: 44
--
molecule: O=C(Nc1cccc(NC(=O)c2cc(Br)c(O)c(Br)c2)c1)c1cc(Br)c(O)c(Br)c1
inhibition, %: 86
--
molecule: O=C1OC2(c3ccccc31)c1cc(Br)c(O)c(Br)c1Oc1c2cc(Br)c(O)c1Br [EOSIN]
inhibition, %: 96
--
molecule: O=C1/C(=C/c2cc(Br)c(O)c(Br)c2)COC/C1=C\c1cc(Br)c(O)c(Br)c1
inhibition, %: 91

====

# Test system: U-937
# assay.summary: Inhibition of histone H3R17 methylation in human U937 cells at 50 uM after 24 hrs
# Format: functional, cell-based
Calls of active or inactive are those of the source. How the calls were made is not given here.

chem.smiles: O=C(/C=C/c1ccc(O)c([N+](=O)[O-])c1)/C=C/c1ccc(O)c([N+](=O)[O-])c1
Activity: Active
--
chem.smiles: O=C(/C=C/c1c(Br)cc(O)cc1Br)/C=C/c1c(Br)cc(O)cc1Br
Activity: Active
--
chem.smiles: O=C(/C=C/c1ccc(O)c(Br)c1)c1ccc(C(=O)/C=C/c2ccc(O)c(Br)c2)cc1
Activity: Active

====

For RmtA (Emericella nidulans, UniProt Q5VLE3), measured IC50 is reported for the entries below.

chem.smiles: CC(C)(C(=O)/C=C/c1cc(Br)c(O)c(Br)c1)C(=O)/C=C/c1cc(Br)c(O)c(Br)c1
target: RmtA (Emericella nidulans, UniProt Q5VLE3)
Sequence (Q5VLE3 whole entry): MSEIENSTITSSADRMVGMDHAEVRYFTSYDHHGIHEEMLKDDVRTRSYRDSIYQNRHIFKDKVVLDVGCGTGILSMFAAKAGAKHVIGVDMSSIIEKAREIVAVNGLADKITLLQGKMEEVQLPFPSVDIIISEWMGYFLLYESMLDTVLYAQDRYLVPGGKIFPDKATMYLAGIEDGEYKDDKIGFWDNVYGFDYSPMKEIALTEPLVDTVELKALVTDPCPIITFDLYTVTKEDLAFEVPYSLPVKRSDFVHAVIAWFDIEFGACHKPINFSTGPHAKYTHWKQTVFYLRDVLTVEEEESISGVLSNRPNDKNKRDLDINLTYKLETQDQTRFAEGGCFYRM
unit.descriptor: µM
IC50: 156

chem.smiles: O=C(/C=C/c1ccc(O)c(F)c1)/C=C/c1ccc(O)c(F)c1
target: RmtA (Emericella nidulans, UniProt Q5VLE3)
unit.descriptor: µM
IC50: 169

chem.smiles: O=C(Nc1cc(Br)c(O)c(Br)c1)C(=O)Nc1cc(Br)c(O)c(Br)c1
target: RmtA (Emericella nidulans, UniProt Q5VLE3)
unit.descriptor: µM
IC50: 32.6

chem.smiles: O=C(/C=C/c1ccc(O)c(Br)c1)CC(=O)/C=C/c1ccc(O)c(Br)c1
target: RmtA (Emericella nidulans, UniProt Q5VLE3)
unit.descriptor: µM
IC50: 109

chem.smiles: O=C(/C=C/c1ccc(O)c(Br)c1)c1cc(Br)c(O)c(Br)c1
target: RmtA (Emericella nidulans, UniProt Q5VLE3)
unit.descriptor: µM
IC50: 40

chem.smiles: O=C(NCCCNC(=O)c1cc(Br)c(O)c(Br)c1)c1cc(Br)c(O)c(Br)c1
target: RmtA (Emericella nidulans, UniProt Q5VLE3)
unit.descriptor: µM
IC50: 75.4

chem.smiles: O=C(/C=C/c1cc(Br)c(O)c(Br)c1)c1cccc(C(=O)/C=C/c2cc(Br)c(O)c(Br)c2)c1
target: RmtA (Emericella nidulans, UniProt Q5VLE3)
unit.descriptor: µM
IC50: 10

chem.smiles: O=C(/C=C/c1cc(Br)c(O)c(Br)c1)c1ccccc1
target: RmtA (Emericella nidulans, UniProt Q5VLE3)
unit.descriptor: µM
IC50: 115

chem.smiles: O=C(/C=C/c1ccc(O)c([N+](=O)[O-])c1)/C=C/c1ccc(O)c([N+](=O)[O-])c1
target: RmtA (Emericella nidulans, UniProt Q5VLE3)
unit.descriptor: µM
IC50: 249

chem.smiles: O=C(NCCNC(=O)c1cc(Br)c(O)c(Br)c1)c1cc(Br)c(O)c(Br)c1
target: RmtA (Emericella nidulans, UniProt Q5VLE3)
unit.descriptor: µM
IC50: 89.7
